Data provenance is patent US20170144969A1.

System: vancomycin resistant Enterococcus faecium (VRE) (ATCC 51559)
Assay: Minimum Inhibitory Concentration, micro-dilution broth
Format: cell-based
Details: 24 h, 37° C.
RECORDED ENDPOINT: MIC (µM)

• CCCCCCCCCCCCCCCC(=O)N(CCCNC(=O)[C@@H]1CCCN1)CCCNC(=O)[C@@H]1CCCN1.O=C(O)C(F)(F)F.O=C(O)C(F)(F)F = 2.7
• CCCCCCCCCCCCCCCC(=O)N(CCCNC(=O)CN)CCCNC(=O)CN.O=C(O)C(F)(F)F.O=C(O)C(F)(F)F = 3.3
• CCCCCCCCCCCCCC(=O)N(CCCNC(=O)[C@@H](N)C(C)C)CCCNC(=O)[C@@H](N)C(C)C.O=C(O)C(F)(F)F.O=C(O)C(F)(F)F = 4
• CCCCCCCCCCCCCCCCCC(=O)N(CCCNC(=O)[C@@H](N)Cc1ccccc1)CCCNC(=O)[C@@H](N)Cc1ccccc1.O=C(O)C(F)(F)F.O=C(O)C(F)(F)F = 3.2
• CCCCCCCCCC(=O)N(CCCNC(=O)[C@@H](N)CCCCN)CCCNC(=O)[C@@H](N)CCCCN.O=C(O)C(F)(F)F.O=C(O)C(F)(F)F = 58
• CCCCCCCCCCCCCCCC(=O)N(CCCNC(=O)[C@@H](N)CC(C)C)CCCNC(=O)[C@@H](N)CC(C)C.O=C(O)C(F)(F)F.O=C(O)C(F)(F)F = 3.4
• CCCCCCCCCCCC(=O)N(CCCNC(=O)[C@@H]1CCCN1)CCCNC(=O)[C@@H]1CCCN1.O=C(O)C(F)(F)F.O=C(O)C(F)(F)F = 112
• CCCCCCCCCCCCCC(=O)N(CCCNC(=O)[C@@H]1CCCN1)CCCNC(=O)[C@@H]1CCCN1.O=C(O)C(F)(F)F.O=C(O)C(F)(F)F = 18
• CCCCCCCCCC(=O)N(CCCNC(=O)[C@@H](N)Cc1ccccc1)CCCNC(=O)[C@@H](N)Cc1ccccc1.O=C(O)C(F)(F)F.O=C(O)C(F)(F)F = 17
• CCCCCCCCCCCC(=O)N(CCCNC(=O)[C@@H](N)C(C)C)CCCNC(=O)[C@@H](N)C(C)C.O=C(O)C(F)(F)F.O=C(O)C(F)(F)F = 25
• CCCCCCCCCCCC(=O)N(CCCNC(=O)[C@H](N)Cc1ccccc1)CCCNC(=O)[C@H](N)Cc1ccccc1 = 2.9
• CCCCCCCCCCCCCC(=O)N(CCCNC(=O)[C@@H](N)Cc1ccccc1)CCCNC(=O)[C@@H](N)Cc1ccccc1.O=C(O)C(F)(F)F.O=C(O)C(F)(F)F = 2.8
• CCCCCCCCCCCCCCCC(=O)N(CCCNC(=O)[C@@H](N)C(C)C)CCCNC(=O)[C@@H](N)C(C)C.O=C(O)C(F)(F)F.O=C(O)C(F)(F)F = 1.4
• CCCCCCCCCCCC(=O)N(CCCNC(=O)[C@@H](N)CCCCN)CCCNC(=O)[C@@H](N)CCCCN.O=C(O)C(F)(F)F.O=C(O)C(F)(F)F = 30
